# credit: patent US12435087B2

- SUBJECT_OF_TEST: DCN1 (DCUND1) protein PONY domain (Homo sapiens (Human))
- Sequence (Q96GG9 60-248): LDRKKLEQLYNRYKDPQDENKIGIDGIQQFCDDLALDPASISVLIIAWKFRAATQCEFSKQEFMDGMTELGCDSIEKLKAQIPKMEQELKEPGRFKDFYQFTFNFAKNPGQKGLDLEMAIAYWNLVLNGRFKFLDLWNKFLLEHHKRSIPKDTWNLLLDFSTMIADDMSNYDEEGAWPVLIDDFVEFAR
- TEST_SUMMARY: TR-FRET assay (binding to DCN-1, displacement of FAM-labeled probe)
- COND: TR FRET IC50 1 hr (nM), 1 hr after treatment with compound
REPORTED_PROPERTY: IC50

1) CCN1C(=O)[C@@H](NC(=O)c2nccc(C(F)(F)F)n2)[C@H](c2cccc(CN3CC=CS3(=O)=O)c2)c2cnn(-c3ccccc3)c21	1000 to 3000 nM
2) C=C(CN1CCOCC1)C(=O)Nc1cccc([C@@H]2c3c(C)nn(-c4ccccc4)c3N(CCO)C(=O)[C@@H]2NC(=O)c2cccc(C(F)(F)F)c2)c1 (racemic)	1000 to 3000 nM
3) CCN1C(=O)[C@@H](NC(=O)c2cccc(C(F)(F)F)c2)[C@H](c2cccc(NC(=O)/C=C(\C)C(=O)OC)c2)c2c(C)nn(-c3ccccc3)c21 (racemic)	1000 to 3000 nM
4) C=C(CN1CC(F)(F)C1)C(=O)NCc1cccc([C@H]2c3cnn(-c4ccccc4)c3N(CC)C(=O)[C@@H]2NC(=O)c2cccc(C(F)(F)F)c2)c1	1000 to 3000 nM
5) C=C(C(=O)N(C)Cc1cccc([C@@H]2c3cnn(-c4ccccc4)c3N(CC)C(=O)[C@H]2NC(=O)c2ccn(C3CC3)n2)c1)C(C)N1CC2CC(C1)O2 (stereo partly shown)	1000 to 3000 nM
6) C=C(CN1CCOCC1)C(=O)NCc1cccc([C@@H]2c3cnn(-c4ccccc4)c3N(CC)C(=O)[C@H]2NC(=O)c2ccn(CCF)n2)c1	200 to 1000 nM
7) CCN1C(=O)[C@@H](NC(=O)c2cccc(C(F)(F)F)c2)[C@H](c2ccccc2CN(C)C#N)c2cnn(-c3ccccc3)c21 (racemic)	1000 to 3000 nM
8) C/C=C(\CN1CC2(COC2)C1)C(=O)N(C)Cc1cccc([C@@H]2c3cnn(-c4ccccc4)c3N(CC)C(=O)[C@H]2NC(=O)c2nccc(C(F)(F)F)n2)c1	1000 to 3000 nM
9) CCN1C(=O)[C@H](NC(=O)c2cccc(C(F)(F)F)c2)[C@@H](c2cccc(CNC(=O)C3=C(C(=O)OC)CC3)c2)c2cnn(-c3ccccc3)c21	1000 to 3000 nM
10) C=CC(=O)N(C)c1cccc([C@H]2c3cnn(-c4ccccc4)c3N(CC)C(=O)[C@@H]2NC(=O)c2cccc(C(F)(F)F)c2)c1 (racemic)	1000 to 3000 nM
11) CCN1C(=O)[C@@H](NC(=O)c2cccc(C(F)(F)F)c2)[C@H](c2cccc(CNC#N)c2)c2c(C)nn(-c3ccccc3)c21 (racemic)	200 to 1000 nM
12) CCN1C(=O)[C@@H](NC(=O)c2nccc(C(F)(F)F)n2)[C@H](c2ccccc2/C=C/C#N)c2cnn(-c3ccccc3)c21 (racemic)	1000 to 3000 nM
13) C=C(CN1CC(F)(F)C1)C(=O)NCc1cccc([C@@H]2c3cnn(-c4ccccc4)c3N(CC)C(=O)[C@H]2NC(=O)c2nccc(C(F)(F)F)n2)c1	200 to 1000 nM
14) C/C=C(\CN1CCOCC1)C(=O)N(C)Cc1cccc([C@@H]2c3cnn(-c4ccccc4)c3N(CC)C(=O)[C@H]2NC(=O)c2nccc(C(F)(F)F)n2)c1	1000 to 3000 nM
15) C/C=C(\CN(C)C1COC1)C(=O)NCc1cccc([C@@H]2c3cnn(-c4ccccc4)c3N(CC)C(=O)[C@H]2NC(=O)c2ccn(C(F)(F)F)n2)c1	200 to 1000 nM
16) CCN1C(=O)[C@@H](NC(=O)c2cccc(C(F)(F)F)c2)[C@H](c2cccc3c2CN(C#N)C3)c2cnn(-c3ccccc3)c21 (racemic)	1000 to 3000 nM
17) C=C(CN1CCN(C2COC2)CC1)C(=O)NCc1cccc([C@@H]2c3cnn(-c4ccccc4)c3N(CC)C(=O)[C@H]2NC(=O)c2cccc(C(F)(F)F)c2)n1	200 to 1000 nM
18) C/C=C(\CN1CCC1)C(=O)NCc1cccc([C@@H]2c3cnn(-c4ccccc4)c3N(CC)C(=O)[C@H]2NC(=O)c2ccn(C3CC3)n2)c1	≤ 200 nM
19) C/C=C/S(=O)(=O)Nc1cccc([C@H]2c3c(C)nn(-c4ccccc4)c3N(CC)C(=O)[C@@H]2NC(=O)c2cccc(C(F)(F)F)c2)c1 (racemic)	200 to 1000 nM
20) C=C(CO)C(=O)Nc1cccc([C@@H]2c3c(C)nn(-c4ccccc4)c3N(CC)C(=O)[C@H]2NC(=O)c2cccc(C(F)(F)F)c2)c1 (racemic)	1000 to 3000 nM
21) C=C(COC)C(=O)Nc1cccc([C@H]2c3c(C)nn(-c4ccccc4)c3N(CC)C(=O)[C@@H]2NC(=O)c2cccc(C(F)(F)F)c2)c1	1000 to 3000 nM
22) CCN1C(=O)[C@@H](NC(=O)c2cccc(C(F)(F)F)c2)[C@H](c2cccc(CN(C)C/C=C/C(=O)N3CCCC3)c2)c2cnn(-c3ccccc3)c21	1000 to 3000 nM
